meta.source: patent US9499502B2

assay target: soluble human BACE1 catalytic domain (Homo sapiens (Human), UniProt P56817)
Sequence (P56817 75-416): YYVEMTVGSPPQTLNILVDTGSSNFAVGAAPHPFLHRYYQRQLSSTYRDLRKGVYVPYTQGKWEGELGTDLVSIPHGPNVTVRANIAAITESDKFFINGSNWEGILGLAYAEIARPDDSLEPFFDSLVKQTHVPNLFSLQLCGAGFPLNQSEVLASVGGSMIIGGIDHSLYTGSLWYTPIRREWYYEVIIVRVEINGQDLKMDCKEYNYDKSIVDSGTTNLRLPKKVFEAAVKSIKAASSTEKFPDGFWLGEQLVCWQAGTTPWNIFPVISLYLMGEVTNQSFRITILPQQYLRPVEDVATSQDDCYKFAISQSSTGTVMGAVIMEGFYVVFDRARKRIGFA
test summary: BACE1 HTRF FRET Assay
assay context: read-out: BACE1 Ki
property: Ki (nM)
The reply should contain only the number, in nM.

Worked examples, 10 compounds total:
Q. Fill in Ki for C[C@@]1(c2sc(-c3cccc(C#N)c3)cc2F)CS(=O)(=O)[C@@](C)(c2ccccc2F)C(=N)N1 [Example 27bs-a] tested with soluble human BACE1 catalytic domain (Homo sapiens (Human), UniProt P56817).
A. 68.3

Q. Jot down Ki (soluble human BACE1 catalytic domain (Homo sapiens (Human), UniProt P56817)) of C[C@@]1(c2sc(-c3cccc(C#N)c3)cc2F)CS(=O)(=O)[C@](C)(CC(F)(F)F)C(=N)N1 [Example 27bj-b] .
A. 829

Q. Give Ki; test system soluble human BACE1 catalytic domain (Homo sapiens (Human), UniProt P56817); compound CC1(C)C(=N)N[C@](C)(c2sc(-c3ccc4nncn4c3)cc2Cl)CS1(=O)=O [Example 27p]
A. 2530

Q. Output reported Ki of the compound C[C@@]1(c2sc(-c3cccc(-c4nnco4)c3)cc2F)CS(=O)(=O)[C@@](C)(c2ccccn2)C(=N)N1 [Example 27bp-a] on soluble human BACE1 catalytic domain (Homo sapiens (Human), UniProt P56817).
A. 17.8

Q. Report value only: Ki, soluble human BACE1 catalytic domain (Homo sapiens (Human), UniProt P56817), CC1(C)C(=N)N[C@](C)(c2cc(-c3cccc(-c4nnco4)c3)cs2)CS1(=O)=O [Example 27ah]
A. 41.5

Q. Provide Ki, system soluble human BACE1 catalytic domain (Homo sapiens (Human), UniProt P56817), entry COc1ccc(-c2nnc(-c3cc(F)c([C@]4(C)CS(=O)(=O)C(C)(C)C(=N)N4)s3)o2)cc1 [Example 27bh]
A. 74

Q. State the measured Ki (soluble human BACE1 catalytic domain (Homo sapiens (Human), UniProt P56817)) of CC1(C)C(=N)N[C@](C)(c2sc(-c3coc(-c4ccc(F)cc4)n3)cc2Cl)CS1(=O)=O [Example 27x]
A. 1110

Q. Lab note: record Ki of COc1cccc(-c2cc(F)c([C@]3(C)CS(=O)(=O)[C@@](C)(CC(F)(F)F)C(=N)N3)s2)c1 [Example 27bl-a] tested on soluble human BACE1 catalytic domain (Homo sapiens (Human), UniProt P56817).
A. 223

Q. State, for soluble human BACE1 catalytic domain (Homo sapiens (Human), UniProt P56817), measured Ki of the compound listed here: CC1(C)C(=N)N[C@](C)(c2sc(-c3cn4ccsc4n3)cc2Cl)CS1(=O)=O [Example 28b]
A. 2630

Q. Supply Ki measured with soluble human BACE1 catalytic domain (Homo sapiens (Human), UniProt P56817) for C[C@@]1(c2ccccn2)C(=N)N[C@](C)(c2sc(-c3cncc(C#N)c3)cc2F)CS1(=O)=O [Example 27bq-b] .
A. 2500

Would you kindly look at the next entry?
Q. GET Ki where system = soluble human BACE1 catalytic domain (Homo sapiens (Human), UniProt P56817) and item = CC1(C)C(=N)N[C@](C)(c2sc(-c3cc(Cl)cc(C#N)c3)cc2Cl)CS1(=O)=O [Example 27s]
A. 64.9

---

assay target: soluble human BACE1 catalytic domain (Homo sapiens (Human), UniProt P56817)
test summary: BACE1 HTRF FRET Assay
assay context: read-out: BACE1 Ki; Ki calculated from IC50 using the Cheng-Prusoff equation
# pKi per record follows
// pKi: -log10(molar conc.)

Examples from the recorded data:
Q. Please give the documented pKi of CC1(C)C(=N)N[C@](C)(c2cc(NC(=O)[C@H]3CCCO3)ccc2F)CS1(=O)=O
A. 6.76

Q. Tell me its pKi given C[C@@]1(c2cc(NC(=O)c3ccc(C(F)(F)F)cn3)ccc2F)CS(=O)(=O)[C@@](C)(c2cccc(F)c2)C(=N)N1 as the entry.
A. 8.46

Others:
Q. Could you please provide reported pKi for CC1(C)C(=N)N[C@](C)(c2nc(-c3ccc(C#N)s3)ccc2F)CS1(=O)=O [Example 16c] ? Thanks!
A. 5.45

Q. Give the reported value of pKi for this record: COc1cnc(C(=O)Nc2ccc(F)c([C@]3(C)CS(=O)(=O)C(C)(C)C(=N)N3)n2)cn1
A. 7.03

---

assay target: UniProtKB Q9Y5Z0
test summary: BACE-2 Assay (BACE-HTRF assay)
Type: biochemical
assay context: Ki calculated from IC50 using the Cheng-Prusoff equation; read-out: BACE2 Ki
property: Ki

Please review the entries below; each comes with its answer.
Q. System UniProtKB Q9Y5Z0. Read-out Ki. Item CC1(C)C(=N)N[C@](C)(c2sc(-c3cc(F)cc(-c4cnco4)c3)cc2F)CS1(=O)=O [Example 27at] . Report value.
A. ≤ 20 nM

Q. Under UniProtKB Q9Y5Z0, report Ki for CC[C@]1(C)C(=N)N[C@](C)(c2cc(NC(=O)c3cnc(OC)cn3)ccc2F)CS1(=O)=O
A. 11 to 100 nM

Q. State Ki on UniProtKB Q9Y5Z0. Entry: COc1cccc2cc(C(=O)Nc3ccc(F)c([C@]4(C)CS(=O)(=O)[C@@](C)(CC5CCOCC5)C(=N)N4)c3)[nH]c12
A. 11 to 100 nM

Q. State recorded Ki with UniProtKB Q9Y5Z0, entry CC1(C)C(=N)N[C@](C)(c2cc(NC(=O)c3cnc(OCC4CC4)cn3)ccc2F)CS1(=O)=O , no comment.
A. 16 nM

New cases:
Q. Write down measured Ki (UniProtKB Q9Y5Z0) for this compound. COc1cnc(C(=O)Nc2ccc(F)c([C@]3(C)CS(=O)(=O)[C@](C)(C4CC4)C(=N)N3)c2)cn1
A. 11 to 100 nM

Q. Name the value of Ki reported for C=CC[C@]1(C)C(=N)N[C@](C)(c2cc(NC(=O)c3cnc(OC)cn3)ccc2F)CS1(=O)=O when tested on UniProtKB Q9Y5Z0.
A. 11 to 100 nM

Q. Find Ki for CC1(C)C(=N)N[C@](C)(c2cc(NC(=O)C(F)F)cc(F)c2F)CS1(=O)=O on UniProtKB Q9Y5Z0 and write it down.
A. 40 nM

Q. Give UniProtKB Q9Y5Z0 Ki for the following compound: CC1(C)C(=N)N[C@](C)(c2sc(Br)cc2Cl)CS1(=O)=O
A. 500 to 10000 nM

Q. Please report the measured Ki for CC1(C)C(=N)N[C@](C)(c2sc(-c3cc(F)cc(-c4nnco4)c3)cc2F)CS1(=O)=O [Example 27as] tested on UniProtKB Q9Y5Z0.
A. ≤ 20 nM

---

assay target: purified human autoBACE-2 (Homo sapiens (Human), UniProt Q9Y5Z0)
Sequence (Q9Y5Z0 63-473): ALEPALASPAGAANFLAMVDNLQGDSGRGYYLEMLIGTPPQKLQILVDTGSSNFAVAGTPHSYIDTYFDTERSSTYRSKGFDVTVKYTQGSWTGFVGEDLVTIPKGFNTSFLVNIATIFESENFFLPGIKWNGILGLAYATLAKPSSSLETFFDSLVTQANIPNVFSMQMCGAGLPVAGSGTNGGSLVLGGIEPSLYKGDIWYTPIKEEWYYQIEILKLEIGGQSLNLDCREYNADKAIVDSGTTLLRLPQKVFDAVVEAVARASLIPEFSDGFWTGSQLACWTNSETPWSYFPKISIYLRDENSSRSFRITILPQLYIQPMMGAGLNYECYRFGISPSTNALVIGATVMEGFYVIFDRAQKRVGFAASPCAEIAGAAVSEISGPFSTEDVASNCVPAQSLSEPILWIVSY
test summary: BACE-2 Assay (BACE-HTRF assay)
Type: biochemical
assay context: Ki calculated from IC50 using the Cheng-Prusoff equation; read-out: BACE2 Ki
Listed compounds paired with reported pKi
Just the number, please; pKi means minus log10 of the concentration in mol/L.

Some solved entries appear below for comparison.
Q. Answer with the recorded pKi of Cc1cnc(C(=O)Nc2cc(F)c(F)c([C@]3(C)CS(=O)(=O)C(C)(C)C(=N)N3)c2)cn1 [Example 9bo] only.
A. 7.66

Q. Answer with reported pKi of CC1(C)C(=N)N[C@](C)(c2cc(NC(=O)c3ccc(C#N)cn3)cc(F)c2F)CS1(=O)=O [Example 9bg]
A. 8.52

Now, please, on to the next compound.
Q. Provide measured pKi value, entry: CC1(C)C(=N)N[C@](C)(c2cc(NC(=N)c3ncc(F)cc3F)ccc2F)CS1(=O)=O [Example 9ef]
A. 6.66

---

assay target: UniProt:Q9Y5Z0
test summary: BACE-2 Assay (BACE-HTRF assay)
Format: biochemical
assay context: Ki calculated from IC50 using the Cheng-Prusoff equation; read-out: BACE2 Ki
Form field: Ki (one value per entry).
Numeric answer only, unit nM assumed.

Some entries whose results are on file:
Q. Please tell me the measured Ki for COCC(=O)Nc1ccc(F)c([C@]2(C)CS(=O)(=O)C(C)(C)C(=N)N2)c1 [Example 9at] ; system: UniProt:Q9Y5Z0.
A. 14

Q. # return Ki for CC1(C)C(=N)N[C@](C)(c2sc(-c3cncnc3)cc2Cl)CS1(=O)=O [Example 24] , test system: UniProt:Q9Y5Z0
A. 314

Q. Specify the recorded Ki for COCC(=O)Nc1cc(F)c(F)c([C@]2(C)CS(=O)(=O)C(C)(C)C(=N)N2)c1 [Example 9bk] , system: UniProt:Q9Y5Z0.
A. 12

Q. Please tell me the measured Ki for CC1(C)C(=N)N[C@](C)(c2sc(C(=O)NCc3cccc(-c4ccon4)c3)cc2Cl)CS1(=O)=O [Example 22g] ; system: UniProt:Q9Y5Z0.
A. 51

Q. Fill: Ki (UniProt:Q9Y5Z0) for this compound Cc1ccc(C(=O)Nc2cc(F)c(F)c([C@]3(C)CS(=O)(=O)C(C)(C)C(=N)N3)c2)nc1 [Example 9bh]
A. 4

More entries:
Q. Specify Ki for C[C@]1(CC(F)(F)F)C(=N)N[C@](C)(c2sc(-c3cccc(-c4nnco4)c3)cc2F)CS1(=O)=O [Example 27bk-a] , system UniProt:Q9Y5Z0.
A. 9

Q. // fetch Ki; item: CC1(C)C(=N)N[C@](C)(c2cc(NC(=O)c3cocn3)cc(F)c2F)CS1(=O)=O [Example 9bu] ; system: UniProt:Q9Y5Z0
A. 5

Q. // fetch Ki for C[C@@]1(c2ccc(F)cc2F)CS(=O)(=O)[C@@](C)(c2cccc(Br)c2)C(=N)N1 [Example 32g-a] ; system: UniProt:Q9Y5Z0
A. 145

Q. State Ki (UniProt:Q9Y5Z0) of CC1(CC(F)(F)F)C(=N)N[C@](C)(c2sc(-c3ccc(F)c(C#N)c3)cc2F)CS1(=O)=O (stereo partly shown) [Example 27bm-a] .
A. 7

Q. Fill in: Ki on UniProt:Q9Y5Z0, entry CC(F)(F)C(=O)Nc1ccc(F)c([C@]2(C)CS(=O)(=O)C(C)(C)C(=N)N2)c1 [Example 9ai]
A. 18
